molecular target: furin, P09958; assay: furin cleavage Z-score vs untreated control; higher = more cleavage, active = 3.5 or more, inactive = 1 or less, 8 variable residues between constant flanks; details: 15 min;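 note: purified furin at 1:10 enzyme:substrate in 50 mM HEPES pH 7.5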
Sequence (P09958 whole entry): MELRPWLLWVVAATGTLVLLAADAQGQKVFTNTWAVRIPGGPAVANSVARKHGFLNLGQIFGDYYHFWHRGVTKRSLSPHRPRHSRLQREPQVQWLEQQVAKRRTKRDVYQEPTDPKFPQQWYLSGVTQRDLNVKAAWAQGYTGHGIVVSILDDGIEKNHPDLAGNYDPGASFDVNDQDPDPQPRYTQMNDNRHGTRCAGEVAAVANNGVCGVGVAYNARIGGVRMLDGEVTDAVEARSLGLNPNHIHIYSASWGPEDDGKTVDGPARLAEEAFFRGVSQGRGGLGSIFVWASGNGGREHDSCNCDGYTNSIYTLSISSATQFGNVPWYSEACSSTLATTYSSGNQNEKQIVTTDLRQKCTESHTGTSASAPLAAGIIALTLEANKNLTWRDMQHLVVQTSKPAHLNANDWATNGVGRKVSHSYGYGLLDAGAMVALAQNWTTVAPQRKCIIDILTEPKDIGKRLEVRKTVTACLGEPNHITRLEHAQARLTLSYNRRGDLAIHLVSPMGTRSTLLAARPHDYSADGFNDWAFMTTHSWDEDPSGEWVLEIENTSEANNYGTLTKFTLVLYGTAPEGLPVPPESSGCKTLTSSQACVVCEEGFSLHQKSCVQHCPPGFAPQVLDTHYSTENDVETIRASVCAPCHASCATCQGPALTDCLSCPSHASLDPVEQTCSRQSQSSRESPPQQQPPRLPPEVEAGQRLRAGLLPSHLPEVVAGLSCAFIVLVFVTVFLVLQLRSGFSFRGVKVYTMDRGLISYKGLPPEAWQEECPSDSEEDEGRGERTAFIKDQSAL
Some of the results follow. No count for the full screen is at hand.
Could you please report measured furin cleavage Z-score for the items listed next?

Task: I'd like to know its furin cleavage Z-score. The sequence in question is CAMPECSQHLAGNASASA [HC1699]
Result: -0.28 (inactive)

Task: Request: CARVKRVLMGAGNASASA [FS-2618]
Result: -0.615 (inactive)

Task: Request: CASKKRSNGLAGNASASA [FS-3136]
Result: 0.376 (inactive)

Task: Request: CARELRQLMEAGNASASA [FS-2916]
Result: -0.988 (inactive)
